Entries and their protein stability index
B1: CHCHD6 (parent)
chain: MYKLSSEQFHEAASKMESTIKPRR

# Variants of: B1
# Assay Protocol: protein stability index of a GFP-peptide fusion (GPS, HEK-293T) (PSI 1-6); higher = more stable;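 further: lentivirally expressed fusions sorted by FACS into six bins by GFP to DsRed ratio, PSI derived from sequencing read proportions per bin multiplied by bin number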
# Recorded Conditions: c terminus: a fixed tail appended
Measurement Label: protein stability index

> print(dat)
    variant.spec        measurement.label  data.value
 1          K21H  protein stability index        3.86
 2          K15L  protein stability index        3.73
 3           L4Y  protein stability index        3.53
 4           S5F  protein stability index        2.82
 5          K21R  protein stability index         3.9
 6           F9I  protein stability index        4.06
 7           E7N  protein stability index        3.58
 8           Y2W  protein stability index        2.58
 9           S5E  protein stability index        4.24
10          R23N  protein stability index         3.4
11          P22Q  protein stability index        3.86
12          I20M  protein stability index        4.21
13           Q8D  protein stability index        3.73
14           F9Y  protein stability index        3.98
15          R23K  protein stability index        4.11
16          A13I  protein stability index        2.93
17          K21V  protein stability index        3.61
18           K3L  protein stability index        2.66
19           Q8L  protein stability index        3.22
20           M1H  protein stability index        4.18
21           Q8F  protein stability index        2.65
22           S5G  protein stability index        4.68
23          R23A  protein stability index        3.99
24          K15Y  protein stability index         3.5
25           S5A  protein stability index        4.02
26          E17W  protein stability index         2.4
27          P22M  protein stability index        3.86
28           L4E  protein stability index        4.34
29          M16E  protein stability index        4.55
30           L4N  protein stability index        4.23
31          I20F  protein stability index        3.51
32          E17Q  protein stability index        3.71
33          E17H  protein stability index        2.92
34           F9S  protein stability index        4.81
35           Y2P  protein stability index        4.77
36          A12P  protein stability index        4.23
37          E17M  protein stability index        3.55
38           E7S  protein stability index        3.79
39          K21L  protein stability index        3.04
40          P22W  protein stability index        2.58
41          H10F  protein stability index        3.44
42           E7L  protein stability index        3.71
43          M16Y  protein stability index        3.45
44          E17F  protein stability index        2.69
45          A12K  protein stability index        3.59
46           K3Y  protein stability index        3.08
